Please respond with reported inhibition for every item in the list.
# Target of assay: Dual specificity protein kinase CLK3 (Homo sapiens) (UniProt P49761)
# Sequence (P49761 whole entry, looked up): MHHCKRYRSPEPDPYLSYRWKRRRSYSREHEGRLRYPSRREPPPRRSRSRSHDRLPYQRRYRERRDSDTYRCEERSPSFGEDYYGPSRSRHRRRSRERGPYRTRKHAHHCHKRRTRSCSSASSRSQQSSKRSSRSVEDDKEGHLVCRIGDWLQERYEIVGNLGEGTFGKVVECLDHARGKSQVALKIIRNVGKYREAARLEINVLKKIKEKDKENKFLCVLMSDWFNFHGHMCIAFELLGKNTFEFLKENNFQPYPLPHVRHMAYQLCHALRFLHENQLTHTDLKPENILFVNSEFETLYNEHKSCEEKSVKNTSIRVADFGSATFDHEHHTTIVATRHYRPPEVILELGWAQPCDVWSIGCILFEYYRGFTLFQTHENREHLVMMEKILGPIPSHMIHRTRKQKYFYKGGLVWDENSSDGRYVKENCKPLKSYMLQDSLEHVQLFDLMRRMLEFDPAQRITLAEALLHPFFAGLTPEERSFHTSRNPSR
# Condition: at 0.1 µM
# Description: GSK_PKIS: CLK3 mean inhibition at 0.1 uM [Nanosyn]
Field: numeric (%). Do not append units.

Query block: Report inhibition for C[C@@H](Oc1cc(-n2cnc3ccc(OCC4CCN(C)CC4)cc32)sc1C(N)=O)c1ccccc1Cl please.
Result block: 1.64

Query block: Report inhibition for CN(c1ccc(NC(=O)Nc2c(Cl)cccc2Cl)cc1)c1ccnc(Nc2cccc(CS(C)(=O)=O)c2)n1 please.
Result block: -0.2

Query block: Report inhibition for COc1cc(C)c(N(C)C(=O)CN(C)C)cc1Nc1nc(Nc2cccc(F)c2C(N)=O)c2cc[nH]c2n1 please.
Result block: -5.35

Query block: Report inhibition for CNC(=O)c1cncc(/C=C/c2c(C)cccc2C)c1 please.
Result block: -2

Query block: Report inhibition for NC(=O)c1ccc(Oc2nccc(-c3c(-c4ccc(F)cc4)ncn3C3CCNCC3)n2)cc1 please.
Result block: 2.43

Query block: Report inhibition for Cc1ccc(C(=O)NC(C)C)cc1-c1ccc(C(=O)NCC2CC2)cc1 please.
Result block: -0.64

Query block: Report inhibition for COc1cc2ncn(-c3cc(OCCc4ccccc4)c(C(N)=O)s3)c2cc1OC please.
Result block: 0.57

###

# Target of assay: Serine/threonine-protein kinase MRCK beta (Homo sapiens);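 further: values are mean percent inhibition of MRCKB, screened as part of the GSK PKIS kinase inhibitor set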
# Condition: at 0.1 µM
Observed property: inhibition (%)
Field: numeric (%). Do not append units.

Query block: Report inhibition for O=C(Nc1n[nH]c2nc(-c3ccc(O)cc3)c(Br)cc12)C1CC1 please.
Result block: 1.77

Query block: Report inhibition for c1ccc(Oc2ccc(Nc3ncc(-c4ccccc4)o3)cc2)cc1 please.
Result block: 0.44

Query block: Report inhibition for COc1cc(C)c(N(C)C(=O)CN(C)C)cc1Nc1nc(Nc2cccc(F)c2C(N)=O)c2cc[nH]c2n1 please.
Result block: 1.08

Query block: Report inhibition for COc1ccc2ncn(-c3cc(O[C@H](C)c4ccccc4Cl)c(C(N)=O)s3)c2c1 please.
Result block: 0.7

Query block: Report inhibition for Cc1ccc(C(=O)NC2CCC2)cc1-c1ccc(C(=O)NCC2CC2)cc1 please.
Result block: 0.73

Query block: Report inhibition for c1ccc(-c2n[nH]cc2-c2ccnc(-c3ccc(OCCN4CCOCC4)cc3)c2)nc1 please.
Result block: 7.67

Query block: Report inhibition for COc1cccc(/C=N/Nc2ncnc3c2cnn3-c2cccc(OC)c2)c1 please.
Result block: -0.8

Query block: Report inhibition for O=C(Nc1n[nH]c2cc(-c3cc(F)ccc3F)ccc12)C1CC1 please.
Result block: -0.23

Query block: Report inhibition for O=C1NC(=O)C(c2cccc(Cl)c2)=C1Nc1ccc(Cl)c(C(=O)O)c1 please.
Result block: 0.15

Query block: Report inhibition for CCC(=O)Nc1ccc(C)c(-c2ccc(C(=O)NCC3CC3)cc2)c1 please.
Result block: -0.7

Query block: Report inhibition for NC(=O)Cc1ccccc1Oc1nccc(-c2c(-c3ccc(F)cc3)ncn2C2CCNCC2)n1 please.
Result block: -0.05

Query block: Report inhibition for CNC(=O)c1cncc(/C=C/c2c(C)cccc2C)c1 please.
Result block: -0.27

Query block: Report inhibition for C[C@@H](Oc1cc(-n2cnc3ccc(OC4CCN(C)CC4)cc32)sc1C(N)=O)c1ccccc1Cl please.
Result block: 0.19

###

# Target of assay: Protein kinase C beta type (Homo sapiens);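 further: mean inhibition value, enzyme form tested was the PKC-beta1 splice variant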
# Condition: at 1 µM
# Description: GSK_PKIS: PKC-beta1 (splice variant) mean inhibition at 1 uM [Nanosyn]
Observed property: inhibition (%)
Field: numeric (%). Do not append units.

Query block: Report inhibition for Nc1nccc(-c2c(-c3ccc(F)cc3)ncn2C2CCC(O)CC2)n1 (centres undefined) please.
Result block: 20.3

Query block: Report inhibition for NCc1ccc(-n2c(-c3nonc3N)nc3cnccc32)cc1 please.
Result block: 64.5

Query block: Report inhibition for COc1ccc2cc(-c3c(-c4ccncc4)nc(-c4ccc(S(C)(=O)=O)cc4C)n3C)ccc2c1 please.
Result block: 14.5

Query block: Report inhibition for C#Cc1cccc(Nc2ncnc3ccc(OCCCCNCCS(C)(=O)=O)cc23)c1 please.
Result block: 4.77

###

# Target of assay: Activated CDC42 kinase 1 (Homo sapiens)
# Condition: at 1 µM
# Description: GSK_PKIS: TNK2 mean inhibition at 1 uM [Nanosyn]
Observed property: inhibition (%)
Field: numeric (%). Do not append units.

Query block: Report inhibition for NC(=O)c1cc(-c2ccncc2)cc(-c2ccccc2)c1N please.
Result block: 7.25

Query block: Report inhibition for CCc1nccc2c1nc(-c1nonc1N)n2CC please.
Result block: -0.83

Query block: Report inhibition for O=C(Nc1ccc(Oc2ccc3[nH]c(NC(=O)c4ccccc4)nc3c2)cc1)Nc1cc(C(F)(F)F)ccc1F please.
Result block: 4.59

###

# Target of assay: Tyrosine-protein kinase TXK (Homo sapiens)
# Condition: at 1 µM
Observed property: inhibition (%)
Field: numeric (%). Do not append units.

Query block: Test system Tyrosine-protein kinase TXK (Homo sapiens); read-out inhibition; what value for O=C1Nc2ccc(I)cc2C1=Cc1cc(Br)c(O)c(Br)c1 ?
Result block: 6.98

Query block: Test system Tyrosine-protein kinase TXK (Homo sapiens); read-out inhibition; what value for COc1cc(C)c(N(C)C(=O)CN(C)C)cc1Nc1nc(Nc2cccc(F)c2C(N)=O)c2cc[nH]c2n1 ?
Result block: -0.09

Query block: Test system Tyrosine-protein kinase TXK (Homo sapiens); read-out inhibition; what value for CN(C)c1ccc2c(c1)/C(=C/Nc1ccc(S(N)(=O)=O)cc1)C(=O)N2 ?
Result block: 4.14

Query block: Test system Tyrosine-protein kinase TXK (Homo sapiens); read-out inhibition; what value for FC(F)(F)c1cccc(Nc2nccc(-c3cnn4nc(-c5ccccc5)ccc34)n2)c1 ?
Result block: 5.95

Query block: Test system Tyrosine-protein kinase TXK (Homo sapiens); read-out inhibition; what value for Fc1ccc(-c2nc3n(c2-c2ccncc2)CCS3)cc1 ?;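 further: value given is the mean percent inhibition of TXK kinase activity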
Result block: -0.14

###

# Tested on: Epidermal growth factor receptor (Homo sapiens), P00533 [L861Q]
# Sequence (P00533 whole entry L861Q): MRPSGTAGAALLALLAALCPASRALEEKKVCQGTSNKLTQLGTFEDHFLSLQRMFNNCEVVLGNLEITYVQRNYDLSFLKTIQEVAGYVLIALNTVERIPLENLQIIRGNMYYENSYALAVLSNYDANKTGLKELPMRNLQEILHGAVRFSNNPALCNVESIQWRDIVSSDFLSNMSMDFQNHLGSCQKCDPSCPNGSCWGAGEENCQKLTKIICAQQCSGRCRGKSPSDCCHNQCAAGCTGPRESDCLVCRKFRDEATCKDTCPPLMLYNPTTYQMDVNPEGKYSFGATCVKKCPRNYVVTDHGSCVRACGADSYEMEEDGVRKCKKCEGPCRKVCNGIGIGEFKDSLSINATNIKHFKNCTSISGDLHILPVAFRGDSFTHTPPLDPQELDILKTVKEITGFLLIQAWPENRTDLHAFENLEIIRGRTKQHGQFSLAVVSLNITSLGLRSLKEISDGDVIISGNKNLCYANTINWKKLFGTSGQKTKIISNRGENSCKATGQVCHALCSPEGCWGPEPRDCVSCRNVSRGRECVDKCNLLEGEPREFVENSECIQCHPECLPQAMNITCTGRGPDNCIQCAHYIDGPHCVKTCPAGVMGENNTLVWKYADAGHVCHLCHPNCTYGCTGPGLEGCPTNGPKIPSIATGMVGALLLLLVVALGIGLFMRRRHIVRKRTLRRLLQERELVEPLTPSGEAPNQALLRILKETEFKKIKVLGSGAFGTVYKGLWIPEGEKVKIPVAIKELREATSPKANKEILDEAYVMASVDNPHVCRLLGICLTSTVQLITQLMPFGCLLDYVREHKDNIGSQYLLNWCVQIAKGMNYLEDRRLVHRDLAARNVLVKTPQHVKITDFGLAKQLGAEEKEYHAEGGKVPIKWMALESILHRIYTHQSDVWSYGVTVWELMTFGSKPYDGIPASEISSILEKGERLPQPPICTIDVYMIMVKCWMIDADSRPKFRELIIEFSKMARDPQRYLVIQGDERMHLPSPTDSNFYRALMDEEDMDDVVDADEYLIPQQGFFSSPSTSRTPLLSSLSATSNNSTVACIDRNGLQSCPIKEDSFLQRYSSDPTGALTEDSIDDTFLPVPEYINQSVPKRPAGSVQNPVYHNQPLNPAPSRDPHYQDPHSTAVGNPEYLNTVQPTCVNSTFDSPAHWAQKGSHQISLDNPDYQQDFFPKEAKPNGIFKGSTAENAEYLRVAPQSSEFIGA
# Condition: at 1 µM
Please respond with reported inhibition for every item in the list.
Field: numeric (%). Do not append units.

Query block: Report inhibition for COc1ccc(-c2ccc3c(NC(=O)C4CC4)n[nH]c3n2)cc1 please.
Result block: 2.45

Query block: Report inhibition for CCc1nccc2c1nc(-c1nonc1N)n2CC please.
Result block: -0.05

Query block: Report inhibition for COc1ccc(C2=C(N3CCc4ccccc43)C(=O)NC2=O)cc1 please.
Result block: 6.05

Query block: Report inhibition for NC(=O)c1cc(-c2ccc(F)cc2)cc(-c2ccncc2)c1N please.
Result block: 7.37

Query block: Report inhibition for CN(C)CCOc1ccc(-c2cc(-c3ccc4c(c3)CCC4=NO)c(-c3ccncc3)o2)cc1 please.
Result block: 4.41

Query block: Report inhibition for CN1CCN(CCCNc2nc3ccc(Oc4ccc(NC(=O)Nc5cc(C(F)(F)F)ccc5F)cc4)cc3[nH]2)CC1 please.
Result block: -4.02

Query block: Report inhibition for CS(=O)(=O)CCNCc1ccc(-c2ccc3ncnc(Nc4ccc(OCc5ccccc5)c(Br)c4)c3c2)o1 please.
Result block: 83.7

Query block: Report inhibition for O=C(NCC1CC1)c1ccc(-c2cccc(C(=O)NC3CC3)c2)cc1 please.
Result block: -2.26

Query block: Report inhibition for COc1cc(C)c(N(C)C(=O)CN(C)C)cc1Nc1nc(Nc2cccc(F)c2C(N)=O)c2cc[nH]c2n1 please.
Result block: -2.41

Query block: Report inhibition for COc1cccc(-n2cnc3c(N/N=C/c4ccncc4)ncnc32)c1 please.
Result block: 10.6

Query block: Report inhibition for Nc1nccc(-c2c(-c3ccc(F)cc3)ncn2C2CCC(O)CC2)n1 (stereo not given) please.
Result block: 33.2

Query block: Report inhibition for N#Cc1ccc(Oc2nccc(-c3c(-c4ccc(F)cc4)ncn3C3CCNCC3)n2)cc1 please.
Result block: 3.57

Query block: Report inhibition for Cc1ccc(NC(=O)c2ccoc2)cc1-c1ccc(C(=O)NCC2CC2)cc1 please.
Result block: 0.37

Query block: Report inhibition for O=C1NC(=O)C(c2cccc(Cl)c2)=C1Nc1ccc(Cl)c(C(=O)O)c1 please.
Result block: 2.94

Query block: Report inhibition for FC(F)(F)c1cccc(Nc2nccc(-c3cnn4nc(-c5ccccc5)ccc34)n2)c1 please.
Result block: 0.07

###

# Target of assay: MAP kinase-activated protein kinase 2 (Homo sapiens);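 further: values are mean inhibition from the GSK PKIS screen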
# Condition: at 1 µM
Observed property: inhibition (%)
Field: numeric (%). Do not append units.

Query block: Report inhibition for COc1cc2ncn(-c3cc(OCc4cccs4)c(C(N)=O)s3)c2cc1OC please.
Result block: 1.78

Query block: Report inhibition for O=C(Nc1n[nH]c2nc(-c3ccco3)ccc12)C1CC1 please.
Result block: 2.89

Query block: Report inhibition for COc1ccc2cc(-c3c(-c4ccncc4)nc(-c4ccc([S+](C)[O-])cc4C)n3C)ccc2c1 (stereo not given) please.
Result block: -3.96

Query block: Report inhibition for CCN(CC)Cc1ccc(Nc2nccc(-c3cnn4ncccc34)n2)cc1 please.
Result block: 2.01

Query block: Report inhibition for COc1cc(C)c(N(C)C(=O)CN(C)C)cc1Nc1nc(Nc2cccc(F)c2C(N)=O)c2cc[nH]c2n1 please.
Result block: 0.04

Query block: Report inhibition for Clc1ccc(CNc2nccc(-c3cnn4ncccc34)n2)cc1 please.
Result block: 3.81

Query block: Report inhibition for NC(=O)Cc1ccccc1Oc1nccc(-c2c(-c3ccc(F)cc3)ncn2C2CCNCC2)n1 please.
Result block: 0.89

Query block: Report inhibition for NC(=O)c1cc(-c2ccncc2)cc(-c2ccccc2)c1N please.
Result block: -0.33

Query block: Report inhibition for COc1ccc2cc(-c3c(-c4ccncc4)nc(-c4ccc(S(C)(=O)=O)cc4C)n3C)ccc2c1 please.
Result block: -1.32

Query block: Report inhibition for Cc1ccc(C(=O)NC2CCC2)cc1-c1ccc(C(=O)NCC2CC2)cc1 please.
Result block: 0.94
